Please provide measured Selectivity SC/CM for the entries that follow.
target: ErbB4 on neonatal rat cardiomyocytes (rat) (UniProt Q62956)
Sequence (Q62956 26-1308): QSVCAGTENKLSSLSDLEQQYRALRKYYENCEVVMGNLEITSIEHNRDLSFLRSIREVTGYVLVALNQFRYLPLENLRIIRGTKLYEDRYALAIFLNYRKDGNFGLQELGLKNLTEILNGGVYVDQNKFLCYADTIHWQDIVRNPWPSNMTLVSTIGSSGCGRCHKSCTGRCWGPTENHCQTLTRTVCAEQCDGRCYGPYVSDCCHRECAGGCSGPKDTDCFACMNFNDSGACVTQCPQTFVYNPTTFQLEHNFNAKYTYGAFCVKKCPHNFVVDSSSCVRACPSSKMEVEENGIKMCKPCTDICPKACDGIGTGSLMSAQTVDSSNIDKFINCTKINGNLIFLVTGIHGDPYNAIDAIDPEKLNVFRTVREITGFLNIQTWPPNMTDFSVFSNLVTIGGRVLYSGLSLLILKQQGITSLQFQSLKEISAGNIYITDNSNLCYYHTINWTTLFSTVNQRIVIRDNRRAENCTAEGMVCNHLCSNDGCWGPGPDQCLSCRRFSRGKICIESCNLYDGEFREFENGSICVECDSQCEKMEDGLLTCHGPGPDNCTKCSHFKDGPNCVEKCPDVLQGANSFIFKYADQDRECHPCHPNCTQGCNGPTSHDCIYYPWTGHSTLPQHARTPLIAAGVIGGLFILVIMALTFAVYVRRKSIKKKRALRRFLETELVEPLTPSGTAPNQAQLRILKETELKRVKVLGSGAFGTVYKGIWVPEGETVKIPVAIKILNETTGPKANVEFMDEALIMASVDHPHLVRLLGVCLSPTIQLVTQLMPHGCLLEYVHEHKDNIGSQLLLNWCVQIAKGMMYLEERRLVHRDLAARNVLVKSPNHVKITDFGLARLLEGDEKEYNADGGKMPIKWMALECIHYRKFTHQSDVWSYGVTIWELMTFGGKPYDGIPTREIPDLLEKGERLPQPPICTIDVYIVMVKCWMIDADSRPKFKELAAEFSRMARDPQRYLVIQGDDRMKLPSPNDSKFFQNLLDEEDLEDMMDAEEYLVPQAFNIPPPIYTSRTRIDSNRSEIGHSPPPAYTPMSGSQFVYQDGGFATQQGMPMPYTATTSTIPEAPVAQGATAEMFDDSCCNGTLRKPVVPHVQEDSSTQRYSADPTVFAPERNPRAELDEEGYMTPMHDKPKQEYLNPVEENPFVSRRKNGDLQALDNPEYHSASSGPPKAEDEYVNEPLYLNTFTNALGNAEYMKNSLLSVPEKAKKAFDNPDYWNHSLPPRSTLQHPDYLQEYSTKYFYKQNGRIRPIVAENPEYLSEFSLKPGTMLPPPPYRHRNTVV
assay_notes: cell-based or functional assay
I'd appreciate a reply containing only the number, no unit.

Request: Any idea what Selectivity SC/CM was measured for huNRG1(S177-Q237)(3A7)::GG::huFcSEFL2 (Pb) (Fc fusion) SHLVKCAEKEKSFCVNGGECFVIEGSSIPSRFLCKCPNEFTGDRCQKVVMASFYKAEELYQGGDKTHTCPPCPAPELLGGPSVFLFPPKPKDTLMISRTPEVTCVVVDVSHEDPEVKFNWYVDGVEVHNAKTKPCEEQYGSTYRCVSVLTVLHQDWLNGKEYKCKVSNKALPAPIEKTISKAKGQPREPQVYTLPPSREEMTKNQVSLTCLVKGFYPSDIAVEWESNGQPENNYKTTPPVLDSDGSFFLYSKLTVDKSRWQQGNVFSCSVMHEALHNHYTQKSLSLSPGK ?
Response: 127

Request: Query: Selectivity SC/CM; subject: huNRG1(S177-Q237)(1A1)::GG::huFcSEFL2 (Pb) (Fc fusion) SHLVKCGESEKSFCVNGGECYVIEDSSIPSRFLCKCPNEFTGDRCQNVFLASFYKAEELYQGGDKTHTCPPCPAPELLGGPSVFLFPPKPKDTLMISRTPEVTCVVVDVSHEDPEVKFNWYVDGVEVHNAKTKPCEEQYGSTYRCVSVLTVLHQDWLNGKEYKCKVSNKALPAPIEKTISKAKGQPREPQVYTLPPSREEMTKNQVSLTCLVKGFYPSDIAVEWESNGQPENNYKTTPPVLDSDGSFFLYSKLTVDKSRWQQGNVFSCSVMHEALHNHYTQKSLSLSPGK
Response: 69

Request: Need Selectivity SC/CM of huNRG1(S177-Q237)(2E4)::GG::huFcSEFL2 (Pb) (Fc fusion) SHLVKCGESDKSFCVNGGECFMVKRPSNPSRYLCKCPNEFTGDRCQKVFLASFYKAEELYQGGDKTHTCPPCPAPELLGGPSVFLFPPKPKDTLMISRTPEVTCVVVDVSHEDPEVKFNWYVDGVEVHNAKTKPCEEQYGSTYRCVSVLTVLHQDWLNGKEYKCKVSNKALPAPIEKTISKAKGQPREPQVYTLPPSREEMTKNQVSLTCLVKGFYPSDIAVEWESNGQPENNYKTTPPVLDSDGSFFLYSKLTVDKSRWQQGNVFSCSVMHEALHNHYTQKSLSLSPGK , thanks.
Response: 143

Request: What Selectivity SC/CM value was documented for this binder, huNRG1(S177-Q237)(3B8)::GG::huFcSEFL2 (Pb) (Fc fusion) SHLVKCGERDKSFCVNGGECFMVERSSIPSRYLCKCPNEFTGDRCQDFFLASFYKAEELYQGGDKTHTCPPCPAPELLGGPSVFLFPPKPKDTLMISRTPEVTCVVVDVSHEDPEVKFNWYVDGVEVHNAKTKPCEEQYGSTYRCVSVLTVLHQDWLNGKEYKCKVSNKALPAPIEKTISKAKGQPREPQVYTLPPSREEMTKNQVSLTCLVKGFYPSDIAVEWESNGQPENNYKTTPPVLDSDGSFFLYSKLTVDKSRWQQGNVFSCSVMHEALHNHYTQKSLSLSPGK ?
Response: 2150
